B1: LCOR (parent)
chain: PCAGSTSLSHSPGCSSTQGNGRPG

# Variants of: B1
# PROCEDURE_TEXT: protein stability index of a GFP-peptide fusion (GPS, HEK-293T) (PSI 1-6); higher = more stable;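 further: lentivirally expressed fusions sorted by FACS into six bins by GFP to DsRed ratio, PSI derived from sequencing read proportions per bin multiplied by bin number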
# SETTINGS: c terminus: a fixed tail appended
Binning scheme for protein stability index: low value = under 3, medium value = from 3 up to 4, high value = 4 and over

Past entries and their recorded results:
Exam item: Lab note: which band did `G4Q` land in?
Marked response: high value

Exam item: Lab log: `R22E` — assign protein stability index category
Marked response: high value

Exam item: Determine which band this variant sits in: `L8V`
Marked response: medium value

Exam item: Lab note: sort `S9G` into the matching protein stability index band.
Marked response: low value

Exam item: Which protein stability index category applies to `T17K` here?
Marked response: medium value

***
Exam item: The entry to classify is `L8P` ; which class holds it?
Marked response: high value

Exam item: Could you place `S7T` in its proper category? Many thanks.
Marked response: medium value

Exam item: Class? Entry: `P1L`
Marked response: medium value

Exam item: Using the reported protein stability index, which band applies to `H10S` ?
Marked response: high value

Exam item: Class (by measured protein stability index) for `T17W`
Marked response: low value

Exam item: In plain terms, what class is `L8K` ?
Marked response: high value

Exam item: Place this variant in its band: `H10R`
Marked response: medium value

Exam item: Each variant maps to one class by protein stability index. Which class for `H10K` ?
Marked response: high value

Reference source: the supplement of paper PMC10567573
